The measurements presented in this section are drawn from PubChem BioAssay (NCI).

system: OVCAR-3 ovarian; assay: NCI tumour cell line growth inhibition, 48 h
// TGI lookup, one value per entry
// return numeric value only (unit: µM, not printed)

The examples below pair each entry with its known result.
Cc1ccc(S(=O)(=O)N(/N=C/C=C/c2ccccc2)c2nnc(-c3ccccc3)c(-c3ccccc3)n2)cc1 :: 88.6
Cc1ccc(-c2nc3nc(-c4ccc(Br)cc4)nc(N4CCCNCC4)c3o2)cc1 :: 3.36
O=C1NC(=O)C(c2c[nH]c3cc(Br)ccc23)=C1c1cnc[nH]1 :: 81.4

(Q) Quote TGI with test system OVCAR-3 ovarian for Cn1c(=O)nc2n(-c3cc(Cl)ccc3Cl)c3ccccc3nc-2c1=O
(A) 9.92

----------
tested on: HL-60(TB) leukemia; experiment: NCI tumour cell line growth inhibition, 48 h; in the data active = GI50 below about 0.43 µM; inactive = the rest
Mark one answer only. Choices: y for active, n for inactive

Before answering, review these 3 worked examples.
O=C(Nc1ccc(F)cc1F)c1cc(F)ccc1O :: n
C/C=C/C1=CN2C(=O)c3cc(OC4OC(C)C(NC)C(C)(O)C4O)c(C)cc3N=C[C@@H]2C1 (some centres not stated) :: y
CCn1nc(-c2ccc(C(=O)OC)cc2)nc2c(=O)n(C)c(=O)nc1-2 :: y

(Q) Short answer needed: outcome of this test for CN1C[C@@H](c2ccc(Cl)cc2)[C@]2(NC(=S)N(c3ccc(F)c(Cl)c3)C2=O)[C@@]12C(=O)NC1C=CC(Cl)=C[C@H]12 (some centres not stated) ?
(A) n

(Q) Short answer needed: outcome of this test for COC(=O)C1=C(C(=O)OC)SC(=C(Cl)C(=S)Oc2ccccc2N)S1 ?
(A) n

(Q) Short answer needed: outcome of this test for Cc1ccc(-c2nc3nc(-c4ccc(Br)cc4)nc(N4CCCNCC4)c3o2)cc1 ?
(A) n

(Q) Short answer needed: outcome of this test for O=C1OCC(C#Cc2ccccc2)=C1Br ?
(A) y

(Q) Short answer needed: outcome of this test for ClC(Cl)c1nc(-c2ccccc2)n2nc(-c3ccccc3)cc2n1 ?
(A) n

----------
// TGI lookup, one value per entry
tested on: M14 melanoma; experiment: NCI tumour cell line growth inhibition, 48 h

CC1NOC(=O)C1N=Nc1ccccc1Br (stereo not drawn) :: 43.3 µM
COc1cc(OC)c2nc3occc3c(OC)c2c1 :: > 100 µM

(Q) Find the measured TGI of O=C(Nc1sccc1S(=O)(=O)c1ccc(Cl)cc1)c1ccc(Cl)cc1 and report it.
(A) > 100 µM

----------
tested on: EKVX NSCLC; experiment: NCI tumour cell line growth inhibition, 48 h
MEASURED QUANTITY: TGI (µM)
// return numeric value only (unit: µM, not printed)

CCOC(=O)C1=C(C)NC(C)=C(C(=O)OCC)C1c1ccc(Cl)cc1 :: 31.3
Cc1cc(C)c([S@@](=O)O[C@@H]2[C@H]3OC(C)(C)O[C@H]3O[C@@H]2[C@H]2COC(C)(C)O2)c(C)c1 :: 61.2
CC1(c2ccccc2)CCN(C2CC2)CO1 (stereo not given) :: 41.4
CC12c3c4cccc3Oc3cc(N)cc(c31)Oc1cc(N)cc(c12)O4 :: 9.52

# evaluate next
(Q) Find the measured TGI of COc1ccc(OC)c(/C=C/C(=O)N/N=C/c2ccccc2)c1 and report it.
(A) 59.5

----------
system: HOP-62 NSCLC; assay: NCI tumour cell line growth inhibition, 48 h
// TGI lookup, one value per entry

The examples below pair each entry with its known result.
COC(=O)C1=C(C(=O)OC)SC(=C(Cl)C(=S)Oc2ccccc2N)S1 :: 42.1 µM
COc1cc(/C=C2\CCC/C(=C\c3ccc(OC(=O)CCCCC4CCSS4)c(OC)c3)C2=O)ccc1OC(=O)CCCCC1CCSS1 (stereo unspecified) :: > 100 µM
COc1ccc(-c2nc(N3CCCC3)no2)cc1 :: > 100 µM
O=C(OCCO)C1CC2CC1C1(C2)OCCO1 (stereo unspecified) :: > 100 µM
COc1ccc2c(c1)O/C(=C\c1ncc([N+](=O)[O-])n1C)C2=O :: 4.18 µM

(Q) Find the measured TGI of O=C(NC1CCCCC1)OCc1c(COC(=O)NC2CCCCC2)c(-c2ccc(Cl)c(Cl)c2)n2c1CCC2 and report it.
(A) 21 µM

(Q) Find the measured TGI of N#C/C(=C\Nc1ccccn1)C(=O)C1CC1 and report it.
(A) > 100 µM

(Q) Find the measured TGI of Oc1ccc(C=NCC2CCCN3CCCCC23)cc1 (stereo unspecified) and report it.
(A) > 75.1 µM

----------
system: K-562 leukemia; test: NCI tumour cell line growth inhibition, 48 h; in the data active = GI50 below about 0.43 µM; inactive = the rest
Mark one answer only. Choices: true = active, false = inactive

COc1ccc(/C=C/C(=O)c2ccc(Cl)cc2Cl)cc1 :: false

(Q) Short answer needed: outcome of this test for C/C=C/C1=CN2C(=O)c3cc(OC4OC(C)C(NC)C(C)(O)C4O)c(C)cc3N=C[C@@H]2C1 (stereo partly drawn) ?
(A) true

(Q) Short answer needed: outcome of this test for CCN(Cc1ccccn1)c1ccc(CO)c(Cl)c1 ?
(A) false

----------
// GI50 lookup, one value per entry
system: NCI-H226 lung; assay: NCI tumour cell line growth inhibition, 48 h

The examples below pair each entry with its known result.
CCCC(=O)OCC1OC(n2cnc3c(=S)nc(N)[nH]c32)C(OC(=O)CCC)C1OC(=O)CCC (configuration not stated) :: 5470 nM
COc1cc(-c2nn(-c3ccc(NC(=O)NCCNS(=O)(=O)c4ccc(F)cc4)cc3)cc2-c2ccncc2)ccc1Cl :: 1380 nM
Cc1ccc2cc3c(cc(C)c4ccccc43)c3c2c1CC3 :: > 100000 nM

# evaluate next
(Q) Find the measured GI50 of COC(=O)c1c(C)c2n(c1C)C(=O)C(c1ccccc1)=C2 and report it.
(A) > 100000 nM

----------
// TGI lookup, one value per entry
system: SF-295 CNS; experiment: NCI tumour cell line growth inhibition, 48 h

Cc1nc2c(o1)C(=Nc1ccccc1)c1ccccc1C2=Nc1ccccc1 :: > 100 µM

(Q) Find the measured TGI of CCC1=C(CC)C1(C#N)[N+](=O)[O-] and report it.
(A) > 100 µM

(Q) Find the measured TGI of COC(=O)/C(=N\NC(N)=O)C(C(=O)C(=O)Nc1ccccc1C(=O)OC)c1nc2ccc(C(=O)c3ccccc3)cc2[nH]c1=O (stereo not drawn) and report it.
(A) > 100 µM

(Q) Find the measured TGI of N#CCCC1(CCC#N)CCCCCCC(CCC#N)(CCC#N)C(=O)C1=O and report it.
(A) > 100 µM

----------
tested on: NCI-H460 lung; assay: NCI tumour cell line growth inhibition, 48 h
MEASURED QUANTITY: TGI

COc1ccc(OC)c(/C=C/C(=O)N/N=C/c2ccccc2)c1 :: 5.62 µM
O=C(CSc1ncnc2nc[nH]c12)c1ccccc1 :: > 100 µM
O=C(c1cccc(F)c1F)N1CCc2c([nH]c3ccccc23)C1c1ccc2c(c1)OCO2 (stereo unspecified) :: 29.9 µM
Cc1noc(C)c1-n1nc2ccc3nonc3c2n1 :: > 100 µM
O=C1CSC2=NC3=C(CSC/C3=C\c3ccc(Cl)cc3)C(c3ccc(Cl)cc3)N12 (stereo unspecified) :: > 100 µM

(Q) Find the measured TGI of CCOC(=O)/C(=C/c1ccc(C(F)(F)F)cc1)N(CC)CC and report it.
(A) > 100 µM

(Q) Find the measured TGI of OCn1nc2c(C3OCCO3)cc3ccccc3n2c1=S and report it.
(A) > 100 µM

(Q) Find the measured TGI of C=CC[C@@]1(OC(C)=O)C(=O)C(=O)OC1C1COC(C)(C)O1 (stereo partly specified) and report it.
(A) 39.1 µM

(Q) Find the measured TGI of O=C(O)C1CCC(=O)N1C(=O)C(Cl)c1ccccc1 (stereo unspecified) and report it.
(A) > 100 µM

(Q) Find the measured TGI of Cn1c(=O)c2[nH]c(CSCc3ccccc3)nc2n(C)c1=O and report it.
(A) > 100 µM

(Q) Find the measured TGI of COc1ccc(-c2nc(N3CCCC3)no2)cc1 and report it.
(A) > 100 µM

----------
// TGI lookup, one value per entry
test system: SW-620 colon; assay: NCI tumour cell line growth inhibition, 48 h

COc1ccc(C2Oc3ccc(Cl)cc3C=C2[N+](=O)[O-])cc1OC (stereo unspecified) :: 0.497 µM

(Q) Find the measured TGI of CC(=O)OC(C)(C)C1O[C@@]23OC1C[C@@H](C)[C@@H]2[C@@]1(C)CC[C@@]24C[C@@]25CC[C@H](OC2OCC(O)C(O)C2O)C(C)(C)[C@@H]5CCC4[C@]1(C)[C@H]3O (stereo partly specified) and report it.
(A) > 100 µM

(Q) Find the measured TGI of OCn1nc2c(C3OCCO3)cc3ccccc3n2c1=S and report it.
(A) > 100 µM

(Q) Find the measured TGI of C=CC(C)c1cccc(C=O)c1O (stereo unspecified) and report it.
(A) > 100 µM

(Q) Find the measured TGI of O=S(=O)(SCCCCSS(=O)(=O)c1ccc(Cl)cc1)c1ccc(Cl)cc1 and report it.
(A) 23 µM

(Q) Find the measured TGI of C(CCCCc1nnc(N2CCOCC2)o1)CCCc1nnc(N2CCOCC2)o1 and report it.
(A) > 100 µM

(Q) Find the measured TGI of C=Cc1c(C)c(O)cc2c1-c1ccc(O)c(C)c1CC2 and report it.
(A) 54.6 µM

(Q) Find the measured TGI of CCCNC1=C(C)C(=O)C2=C(C1=O)[C@H](COC(N)=O)[C@]1(OC)[C@@H]3N[C@@H]3CN21 and report it.
(A) 113 µM

(Q) Find the measured TGI of NC(=S)Nc1[nH]c(=S)nc2[nH]ccc12 and report it.
(A) > 100 µM

(Q) Find the measured TGI of O=C1C(Cl)C(c2cc(Br)ccc2O)N1n1cnc2ccccc2c1=O (stereo unspecified) and report it.
(A) > 100 µM

(Q) Find the measured TGI of COc1ccc2cc1Oc1ccc(cc1)CC1c3cc(OC)c(cc3CCN1C)Oc1c(OC)c(OC)cc3c1C(C2)N(C)CC3 (stereo unspecified) and report it.
(A) > 75 µM

(Q) Find the measured TGI of COc1ccc2c(c1)O/C(=C\c1ncc([N+](=O)[O-])n1C)C2=O and report it.
(A) 1.31 µM

(Q) Find the measured TGI of COC(=O)C(=O)C(C(=O)C(=O)Nc1ccc([N+](=O)[O-])cc1[N+](=O)[O-])c1nc2ccc(Cl)cc2[nH]c1=O (stereo unspecified) and report it.
(A) > 100 µM
